# RUN DESCRIPTION: qHTS assay to identify small molecule agonists of the sonic hedgehog signaling (Shh) pathway (AID 1259368);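 further: NIH/3T3-derived 3T3Gli1-Luc cells carrying a stable Gli1-driven firefly luciferase reporter; nearly all actives have a fitted effect of over 15% in size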
# CONDITION PARAMETERS: NIH/3T3 Gli1-Luc reporter, luciferase, 24 h; series mostly up to 92.4 µM
Active and inactive are the calls of the source. The call rests on the fitted dose curve.
PROPERTY LABEL: outcome

Example entries and their recorded answers appear below.
CN(C)C(=O)Nc1ccc(Cl)cc1    inactive
CC(C)(C)c1ccccc1O    inactive
CCOc1cc(C=O)ccc1O    inactive
CCC(C)c1cc([N+](=O)[O-])cc([N+](=O)[O-])c1O (stereo not drawn)    inactive
N#Cc1cc(Br)c(O)c(Br)c1    inactive
Oc1cc(Cl)ccc1Cl    inactive
COc1ccc(C(CN(C)C)C2(O)CCCCC2)cc1 (stereo not drawn)    inactive

Okay, next one:
Bench note: what outcome did "NC(=S)Nc1ccccc1" show?
inactive

---

# RUN DESCRIPTION: qHTS assay to identify small molecule antagonists of the estrogen related receptor signaling pathway with the pleiotropic PPARgamma coactivator (PGC) from Tox21 10K library (AID 1224841); further: actives are mostly falling curves and most rising ones were filed inactive; nearly all actives have a fitted effect of over 50% in size; further: potency means the concentration at half of the fitted maximal effect
# CONDITION PARAMETERS: PGC/ERR reporter cell line, ONE-Glo luciferase, 18 h; series mostly up to 92.4 µM
Results filed as inconclusive are left out. Activity calls are given as the source filed them. The rule behind the calls is not given here.
PROPERTY LABEL: Potency

Illustrative cases are given below, each with its answer.
CCCCN(CC)c1c([N+](=O)[O-])cc(C(F)(F)F)cc1[N+](=O)[O-]    inactive
CCOC(=O)C(C)OC(=O)c1cc(Oc2ccc(C(F)(F)F)cc2Cl)ccc1[N+](=O)[O-] (stereo unspecified)    24.2 µM (active)
Cc1ccc2c(c1N)C(=O)c1ccccc1C2=O    inactive
CCC(C)(C)c1ccc(O)cc1    inactive
c1ccc(NNc2ccccc2)cc1    inactive

Now for the molecule whose Potency we want.
Recorded Potency for C=C(C)C(=O)OCC1CO1 (stereo unspecified) , please?
inactive

---

# RUN DESCRIPTION: qHTS RealTime-Glo MT Cell Viability Assay in HepG2 cells - 32 hour (AID 1224877); further: nearly all actives have a fitted effect of over 55% in size
# CONDITION PARAMETERS: RealTime-Glo luminescence; series mostly up to 76.8 µM
Inconclusive results are not listed. The source made the active and inactive calls. Calls come from the whole dose curve; as a rule, active = well fitted cell-killing curve with a large enough effect in the repeat runs; inconclusive = weak or mixed curves; inactive = flat fitted curve, though single readings scatter.
Your answer must be one of the following: yes for active, no for inactive

# count of solved cases: 5
Oc1ccc(-c2ccccc2)cc1    no
O=[N+]([O-])c1c(Cl)c(Cl)c(Cl)c(Cl)c1Cl    no
Brc1ccc(Oc2cc(Br)c(Br)cc2Br)c(Br)c1    no
NNC(=S)NN    no
CCN(CC)N=O    no

Recorded call for "Nc1ccncc1" ?
no

What did the test return for "CC(C)(c1cc(Cl)c(O)c(Cl)c1)c1cc(Cl)c(O)c(Cl)c1" ?
no

Give the logged outcome of this assay for the following compound: "Oc1cc(Cl)ccc1Oc1ccc(Cl)cc1Cl"
yes

Which outcome did this test record for the compound "O=[N+]([O-])c1ccc(O)c([N+](=O)[O-])c1" ?
no

I'd appreciate the recorded outcome for "N#CC(Br)Br" from this test.
no

Call for entry "COP(=S)(OC)Oc1cc(Cl)c(Cl)cc1Cl" :
no

Check the results log: what was the call for "CC(C)c1ccc(CO)cc1" ?
no

---

# TARGET OR SYSTEM: Cytochrome P450 2C19 (Homo sapiens) (UniProt P33261)
# Sequence (P33261 whole entry, looked up): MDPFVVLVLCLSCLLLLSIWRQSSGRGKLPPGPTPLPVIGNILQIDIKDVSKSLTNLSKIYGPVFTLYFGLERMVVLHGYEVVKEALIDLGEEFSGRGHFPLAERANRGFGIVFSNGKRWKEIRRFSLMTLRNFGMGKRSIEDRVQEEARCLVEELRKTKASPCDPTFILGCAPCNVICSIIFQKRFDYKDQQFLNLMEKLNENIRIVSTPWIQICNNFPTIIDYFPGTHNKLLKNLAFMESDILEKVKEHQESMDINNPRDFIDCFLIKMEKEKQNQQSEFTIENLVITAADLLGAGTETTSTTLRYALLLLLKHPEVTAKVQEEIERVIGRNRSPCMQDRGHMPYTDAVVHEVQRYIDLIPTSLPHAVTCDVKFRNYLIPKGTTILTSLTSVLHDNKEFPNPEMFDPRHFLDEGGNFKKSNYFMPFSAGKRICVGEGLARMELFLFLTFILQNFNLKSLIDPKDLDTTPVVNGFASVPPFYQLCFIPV
# RUN DESCRIPTION: Cytochrome P450 Family 2 Subfamily C Member 19 (CYP2C19) small molecule antagonists: luciferase reporter qHTS assay (AID 1671197); further: nearly all actives have a fitted effect of over 65% in size
# CONDITION PARAMETERS: P450-Glo CYP2C19 enzyme, luciferin luminescence, 1 h; series mostly up to 115 µM
# Excerpt: National Center for Advancing Translational Sciences [NCATS] U.S. Environmental Protection Agency [EPA] National Institutes of Environmental Health Sciences [NIEHS] National Toxicology Program [NTP] U.S. Food and Drug Administration [FDA] Cytochrome P450 (CYP) enzymes are membrane-bound hemeproteins that play a key role in metabolism of drugs and xenobiotics. […] The luciferin products formed are detected with a luciferin detection reagent, and the amount of light produced is proportional to CYP activity. […]
Records with an inconclusive call do not appear. Activity calls are given as the source filed them. Calls come from the whole dose curve; as a rule, active = well fitted inhibition curve with a large enough effect in the repeat runs; inconclusive = weak or mixed curves; inactive = no such curve, though single readings can be large or run the other way.
Thanks in advance; please answer with one of these: active, inactive

Example cases with answers are listed next.
C=CCc1ccc(OC)cc1    inactive
CCN(CC)N=O    active
O=C(O)CC[N+](=O)[O-]    inactive
c1ccc(NNc2ccccc2)cc1    inactive
C=C(C)C(=O)OCC1CO1 (stereo not given)    inactive

Returns: the outcome recorded for CCC(C)c1ccc(O)cc1 (stereo not given) in this assay.
inactive

Can you look up the reported call for "CCC(C)(c1ccc(O)cc1)c1ccc(O)cc1" for me?
inactive

Recorded test call requested for "CCOc1cc(C=O)ccc1O"
inactive

Can you look up the reported call for "CCCCCCCCC(=O)NCc1ccc(O)c(OC)c1" for me?
active

Hi, sorry to bother you, what did the test record for "O=C(CCl)c1ccccc1" ?
active

# outcome recorded in this test, key = "O=[N+]([O-])c1c(Cl)c(Cl)c(Cl)c(Cl)c1Cl"
inactive

---

# RUN DESCRIPTION: Caspase-3/7 induction in CHO-K1 cells by small molecules, qHTS cell viability counter screen (AID 1346979); further: nearly all actives have a fitted effect of over 35% in size; further: potency means the concentration at half of the fitted maximal effect
# CONDITION PARAMETERS: CellTiter-Fluor fluorescence, 17 h; series mostly up to 92.4 µM
Inconclusive results are not listed. The source made the active and inactive calls. Calls follow the shape of the dose curve; as a rule, active = well fitted cell-killing curve with a large enough effect in the repeat runs; inconclusive = weak or mixed curves, or effect the other way; inactive = no such curve, though single readings can be large or run the other way.
PROPERTY LABEL: Potency

Answered examples (5):
CC(C)(OOC(C)(C)c1ccccc1)c1ccccc1    inactive
CC(C)NC(C)C    inactive
COP(=S)(OC)Oc1cc(Cl)c(Cl)cc1Cl    inactive
C=CCc1ccc(OC)cc1    inactive
CNC(=O)Oc1cccc2c1OC(C)(C)O2    inactive

Hello, I would appreciate it if you could give Potency for each entry below.
1. Cc1c(COC(=O)[C@@H]2[C@H](/C=C(\Cl)C(F)(F)F)C2(C)C)cccc1-c1ccccc1
2. Nc1cccnc1
3. O=C(CCl)c1ccccc1

1: 43.1 µM (active); 2: inactive; 3: 68.6 µM (active)

---

# RUN DESCRIPTION: qHTS assay to identify small molecule antagonists of the androgen receptor (AR) signaling pathway using the MDA cell line in the presence of 0.5 nM R1881 - cell viability counter screen (AID 1259242); further: nearly all actives have a fitted effect of over 45% in size
# CONDITION PARAMETERS: MDA-kb2 viability, CellTiter-Fluor protease fluorescence, 16 h; series mostly up to 92.4 µM
Inconclusive results are not listed. Activity calls are given as the source filed them. The call rests on the fitted dose curve; in most records, active means well fitted cell-killing curve with a large enough effect in the repeat runs; inconclusive means weak or mixed curves, or effect the other way; inactive means flat fitted curve, though single readings scatter.
Log the outcome using a class from T for active, F for inactive

Oc1cc(Cl)ccc1Oc1ccc(Cl)cc1Cl    T

Which result was noted for this compound in the test: c1cc(OCC2CO2)ccc1Cc1ccc(OCC2CO2)cc1 (stereo not given)
F

// outcome(item) with item = "O=C(NC(=O)c1c(F)cccc1F)Nc1ccc(Cl)cc1"
F

Fill in: this test's call for "COC(=O)c1sccc1S(=O)(=O)NC(=O)Nc1nc(C)nc(OC)n1" is ___
F

Could you please tell me the result logged for "Clc1nc(Cl)nc(Cl)n1" in this assay?
F

Record request — test call for "CCC(CC)Nc1c([N+](=O)[O-])cc(C)c(C)c1[N+](=O)[O-]"
F

I'd appreciate the recorded outcome for "CCCCN(CCCC)N=O" from this test.
F

Assay outcome for "CCCCNC(=O)n1c(NC(=O)OC)nc2ccccc21" : what was it?
F

Lab log entry: CCC(C)c1ccc(O)cc1 (stereo not given) — outcome as called in the assay?
F

State the result this test recorded for "c1ccc(P(c2ccccc2)c2ccccc2)cc1" .
F

Dear all, I need the recorded test outcome for "Oc1cc(Cl)c(Cl)cc1Cl" , thank you.
F

Any idea what this test logged for "C=CC(=O)OCCO" ?
F

Per the assay record, what outcome was assigned to "CCCCCCCCOC(=O)c1ccccc1C(=O)OCCCCCCCC" ?
F

Recorded test call requested for "Nc1ccc(-c2ccc(N)c(N)c2)cc1N"
F

What did the test return for "O=Cc1ccco1" ?
F

---

# RUN DESCRIPTION: qHTS assay to identify small molecule antagonists of the sonic hedgehog signaling (Shh) pathway (AID 1259369); further: nearly all actives have a fitted effect of over 45% in size
# CONDITION PARAMETERS: NIH/3T3 Gli1-Luc reporter, Shh antagonist, luminescence 24 h; series mostly up to 92.4 µM
Inconclusive results are not listed. Active and inactive are the calls of the source. The call rests on the fitted dose curve.
PROPERTY LABEL: outcome

These recorded examples may help you get a feel for the data.
CCCCN(CC)c1c([N+](=O)[O-])cc(C(F)(F)F)cc1[N+](=O)[O-]    inactive
CCOP(=S)(OCC)O/N=C(\C#N)c1ccccc1    inactive
CC(C)(C)c1ccccc1O    inactive
C=CCc1ccc2c(c1)OCO2    inactive
O=C(O)C(F)(F)C(F)(F)C(F)(F)C(F)(F)C(F)(F)C(F)(F)C(F)(F)F    inactive

Each compound below has a reported value. Please supply its outcome.
1. c1ccc(N=Nc2ccccc2)cc1
2. COP(=O)(OC)OC
3. CCN(N=O)C(N)=O
4. CC(O)CCO (stereo not given)
5. CCOc1cc(C=O)ccc1O
6. COc1ccc(C=O)cc1
7. CCOc1cc(Oc2ccc(C(F)(F)F)cc2Cl)ccc1[N+](=O)[O-]

1. inactive
2. inactive
3. inactive
4. inactive
5. inactive
6. inactive
7. inactive
